Values were extracted from the DeepSol protein solubility set.

Assay: soluble on expression in E. coli; label from the status in PepcDB or PDB records
QUANTITY: soluble on expression in E. coli

MSLQRVSNRLIEQSDIENMPNTWKKQAYRQIAKKLGPKSNFPCIFSKNAYKKGLLQFVFMESISHDQMEELKVCLTEFIEANKEWDHRISTAKPLLIVFSTQAIKSERLEDYHSFGWNVLRSIHALDPSPWPHGVDKDPSSPNWSMCFNGMQLFINMSCPAHKVRRSRNLGDHFIMVVNPRERFDVVAGDNAKGHRVRDEIRGRIEIYDNCKPCKQLGYFGSDTMEWQQYGIIEENKTRTSKCPYKIDEGHHHHHH; soluble
MGHHHHHHSHMEDSHKSTTSETAPQPGSAVQGAHISHIAQQVSSLSESEESQDSSDSIGSSQKAHGILARRPSYRKILKDLSSEDTRGRKGDGENSGVSAAVTSMSVPTPIYQTSSGQYIAIAPNGALQLASPGTDGVQGLQTLTMTNSGSTQQGTTILQYAQTSDGQQILVPSNQVVVQTASGDMQTYQIRTTPSATSLPQTVVMTSPVTLTSQTTKTDDPQLKREIRLMKNREAARECRRKKKEYVKCLENRVAVLENQNKTLIEELKTLKDLYSNKSV; soluble

====

Assay: soluble on expression in E. coli; label from the status in PepcDB or PDB records
QUANTITY: soluble on expression in E. coli

Before answering, review these 6 worked examples.
MPRKLLEERSTGSATKWLREEEKIEKKSRADQLKIKFMQTRDNSDINSIFSEPPSEFSVLCDDDDCDKGSVVSSTLTTSIRKTFSSFRFDENQRKKGTRKRRSSEKGRICRRKVHIILARNMLRKENELYKKDAEYCQTPRAVADGCSFSTLPTI; not soluble
MGSDKIHHHHHHMSTILLPKTQHLVVFQEVIRSGSIGSAAKELGLTQPAVSKIINDIEDYFGVELVVRKNTGVTLTPAGQLLLSRSESITREMKNMVNEISGMSSEAVVEVSFGFPSLIGFTFMSGMINKFKEVFPKAQVSMYEAQLSSFLPAIRDGRLDFAIGTLSAEMKLQDLHVEPLFESEFVLVASKSRTCTGTTTLESLKNEQWVLPQTNMGYYSELLTTLQRNGISIENIVKTDSVVTIYNLVLNADFLTVIPCDMTSPFGSNQFITIPVEETLPVAQYAAVWSKNYRIKKAASVLVELAKEYSSYNGCRRRQLIEVG; not soluble
MGSDKIHHHHHHMEVERLSLKEFCDMVAERKPTPGGGAVGSVVGAMACALAEMVANFTRKKKGYEDVEPEMERIVEAMEEARLKLFDLAKKDMEAFEKVMKAYKSSEGELQNALKEAASVPMDVIRVMKDLAHELEKLAEFGNKNLASDTLNAADLCHAVFQVEKVNVLINLKEISDETFRKNMLEELEEQEAQIEGCYQRVKKMLEGIVWSSK; soluble
MGSDKIHHHHHHMKKYSLTPAMLEVCKEYNFFSDVSGFMPLTSENIKEIKIGKKFAYSHQDNNKPTHQKLSKIIFENFLSNIPLNQSAIAYVKKKSYFDFIEPHRNNYFFLRIDLKDFFHSISEDLLKRTLSDYFSSESLSETIKQSNIDAIFTFLTVNLKSDSSNVKFLDKKILPIGFPLSPNLANIVFRKTDLLLEKLCDMHGVTYTRYADDMLFSSRGIMEKNLLFRKNNNYKKPYIHSDNFLSEIKYLVSIDGFFINHNKTIKSVNTLSLNGYTISGTNFPDIEGKIRLSNKKTKIIEKVIHEININPDDKVTFEKCFKKEFPKPKYEKNRDNFINNLCTIKINQKLLGYRSYLISIIKFNNKFNCISESSEDKYNTLLSKIENVIKKRIK; not soluble
MGSDKIHHHHHHMTKRILEVNVDDNGYSGVYSLIKRVIENKPADYQIDLACLEPFESQQNIDYLNKLGTQVYYIGYPGNKIKKQLKYYEKLQKVVKDGNYDYVHIHGDVANKLYVTALAARKADSGVKIILQSHASDVDGSHRQLKRFIHKSLRGKLVKLADCYVSVSDLASNWMFPSIPKSQVIKIMNGVDLAAFRYDPIIRKRIRKELGLSRKHVLGHIGRFAYQKNHQYLIQVFAKVYAQDPQARLLLVGKGDLQDECKHQVHDLGLDKQVIFYGLSSNTSELFQAMDVFLLPSHFEGLPIVGVEAQAAGLPVIFSDQITSEAKMTNNVSFLPIDETSLSAWQSQVIKDLELGHRDDYDLLSRQKLDITDTVAAFMKLYNS; not soluble
SAENERMYISYNNIHKLCQGVAKHILARNERPDIIIAITGGGMIPARIIRSFLKTKGQKNIPIQAIGLSLYEDLGLDNSVETIGKEVIRTQWLDFGALNQHFDSLIGKKVLIVDEVDDTRTTLHYAVSELEKEIAEQQKVLNRMSEETVISIFVLHNKDKPKRAGLPDSMMNSGRYIAAQTVPDKWLCYPWDAEDIEEHTMLAKAQGHD; soluble

For the sequence MGSDKIHHHHHHMSANTQSMIFTVYGDYIRHYGNQIWVGSLIRLLKEFGHNEQAVRVAVSRMVKQGWLTSQKQGTKSFYSLTPRGVERMEEAARRIYKSTPHVWDGKWRTLMYTIPEDKRQIRDELRKELSWSGFGNLSNGVWISPNPLEKEAERLIEAYDIKAYIDFFVGEYHGPQQDQSLVERAFPLDELQERYEQFIAEYSRRYIVHQSRIQLGEMDEEQCFVERTTLVHEYRKFLFTDPGLPQELLPDEWSGHHAALLFEQYYRLLAEPASRFFESIFRETHDVTQKSADYDASEHPLFAER , give its measured soluble on expression in E. coli value.
not soluble

For the sequence MGSDKIHHHHHHYQQQYKMAVHVTPESENDPEWPSKKKWFDASEWLSTPQYIKINDFYVINTRYVPIGDLNSDQIIFYLKKGINGSEKRFSELSVLSDLDNQEFRELMKDKLSSEYLETQFEKETLTPTIDFFLIYFIYNNKRYEVPIRREYSGNKYHYWVLEGSVKKAGYWHERFPTSYSYRKYLNK , give its measured soluble on expression in E. coli value.
not soluble

For the sequence MAAVSIVFEAPDNYGGAPAVSKKPIDFDHLAQQTMGDKDLEIEVLQLFSRSARAALHEMAGADNKTVTATAHRLKGSAQAVGASAVSAAAAAVEEKGNDSALIAKLAAAIVEAENFILKLCR , give its measured soluble on expression in E. coli value.
not soluble

For the sequence MSLTRIQLVISDVDGTLVTTDKRLTDRARDAVSRLEASGVGFTLTSSRPPVGMRMYSDPLGITLPLGPFNGSSIVTPTLDVLEQHLIPDSAATISIELFERSGIDIWLFTNDNWYIRRDDGKYVVHEERTIRFSPTMAEDLTPFAGKACKIVGVSADFALLKRCEPELQAALGDRALAVRSQDYYLDVTPPGRSKGTFVATMAERLGIAADAIATIGDMQNDLPMFGVSGLPIAMGNAADDIKQQAAHVTGRNDDDGFAAAIDFILEHNARVGEGHHHHHH , give its measured soluble on expression in E. coli value.
soluble

For the sequence KVMMPKVEERDDSEAPKAFFSEYEICNPALDGKSVREVALLLKRPFVITRVWHNGKVEIPTSDMILYFGDHILAVSGEEDTSQLEILFGKREMKDWNRPDIDWNSVDKQLVSRRLVITRPKLNGVRLGMLKIRNLYGVNISRVDRAGVELLPDRDLRLQLGDRLTVVGEGKAVERVAEILGDEVKQLDNPH , give its measured soluble on expression in E. coli value.
not soluble

====

Experiment: soluble on expression in E. coli; label from the status in PepcDB or PDB records
QUANTITY: soluble on expression in E. coli

Before answering, review these 9 worked examples.
MNEALSSGKVKNGEFLTVYLKEKLPDRLHYSQSYRIPPIIGMVGEGLIVRQNRTNAQECYGDHGYDNKFFSMRTIFVGHGSRFRRGKKVPSFENVQIYSVVADILGLRPAPNNGSSLFPRSILLPFRATRGLE; not soluble
SKIFDFVKPGVITGDDVQKVFQVAKENNFALPAVNCVGTDSINAVLETAAKVKAPVIVQFSNGGASFIAGKGVKSDVPQGAAILGAISGAHHVHQMAEHYGVPVILHTDHCAKKLLPWIDGLLDAGEKHFAATGKPLFSSHMIDLSEESLQENIEICSKYLERMSKIGMTLEIELGCTGGEEDGVDNSHMDASALYTQPEDVDYAYTELSKISPRFTIAASFGNVHGVYKAGNVVLTPTILRDSQEYVSKKHNLPHNSLNFVFHGGSGSTAQEIKDSVSYGVVKMNIDTDTQWATWEGVLNYYKANEAYLQGQLGNPKGEDQPNKKYYDPRVWLRAGQTSMIARLEKAFQELNAIDVL; soluble
MTKSVDTLLIPGPIILSGAVQKALDVPSLGHTSPEFVSIFQRVLKNTRAVFKSAAASKSQPFVLAGSGTLGWDIFASNFILSKAPNKNVLVVSTGTFSDRFADCLRSYGAQVDVVRPLKIGESVPLELITEKLSQNSYGAVTVTHVDTSTAVLSDLKAISQAIKQTSPETFFVVDAVCSIGCEEFEFDEWGVDFALTASQKAIGAPAGLSISLCSSRFMDYALNDSKNGHVHGYFSSLRRWTPIMENYEAGKGAYFATPPVQLINSLDVALKEILEEGLHKRWDLHREMSDWFKDSLVNGLQLTSVSRYPSNMSAHGLTAVYVADPPDVIAFLKSHGVVIAGGIHKDIGPKYIRIGHMGVTACNKNLPYMKNCFDLIKLALQRKK; soluble
MEAGFVSIGDVTFRDLEDEAIVELVRKGNTDALEYLIHKYKNFVRAKSRSYFLVGADREDIVQEGMIGLFKAIRDYKEDKLSSFKAFAELCITRQIITAIKTATRQKHIPLNSYVSLDKPIYDEESDRTLLDVISEAKVTDPEEMIISQEEYTDIESKISELLSDLERKVLSLYLDGRSYQEISEQLNRHVKSIDNALQRVKRKLERYMEMRESTTLNS; not soluble
MGHHHHHHSHDSLAEFKVPLILFSGGEPLLREDIFEIAGYAKKKGIKSVLSTNGTLIDRDMAENLKVFEYVGVSLDGVASTNDRFRGVEGAYERAFKGLLMASEVVLSGIRFTVSKYNYKDVFSLIELAREHEIPRFCLYHLVPSGRAEFKDDITNEQRRALLDNLLREAEKEGMEIMTVDNPADGIYTYLKLKEADSEKAEMALEFLKFRGGDSSGIRLANIDHQGNVHPNQFW; soluble
MTKHARFSLLPSFIIFSAALLAGCNDQGDTQAHAGEPQVTVHVVETAPLAVTTELPGRTSAFRIAEVRPQVSGIVLKRNFTEGSDVEAGQSLYQIDPATYQADYDSAKGELAKSEAAAAIAHLTVKRYVPLVGTKYISQQEYDQAIADARQADAAVVAAKAAVESARINLAYTKVTSPISGRIGKSNVTEGALVTNGQSTELATVQQLDPIYVDVTQSSNDFMRLKQSVEQGNLHKDSASSTVQLVMENGQVYPIKGTLQFSDVTVDESTGSITLRAVFPNPQHSLLPGMFVRARIDEGVQPNAILVPQQGVTRTPRGDAMVMVVNDKSQVEARNVVAAQAIGDKWLISEGLKPGDKVIVSGLQKARPGVQVKATTDAPAAKTAQ; not soluble
MAVKDNYCVIMGGGIGSRFWPFSRESHPKQFLDFFGTGRSLLQMTYDRFARFIPRENILVVTNELYVDKVREQLPEIEPDQILREPTRRNTAPCIAYASYHIYARNPKANIIVAPSDHLILREDEFVRAASEALEFVADHEHLVTLGIRPSRPETGYGYIQMAEEKTGDFIRVKTFTEKPNAEMASIFLASGEFLWNSGMFVWNVESILAAFRKHLPEVTSSLENGLAHFNTPEERRFIDQAFPYCPSISIDFGVMEKADNVLVMPVDFGWADLGTWGSLYELAQKDDAGNASLKTRTLFYEAERNIVTTDNPQKLVVVQGINDCIVAESGNVLLICRAEEEQRIKHFVADAALKYDKEYN; soluble
MPRPPHLCTCGQLVPHGARCSCQIQRDRERKARFDQKRPSSRERGYTHEWRKARAEFLHQHPTCAFCGAPAGVVDHVIPHKGDMTLFWDRTNWQALCKPCHDRQKQMQERYNHIISLEHHHHHH; not soluble
MKTYSEARARLRWYQGRYIDFDGWYGYQCADLAVDYIYWLLEIRMWGNAKDAINNDFKNMATVYENTPSFVPQIGDVAVFTKGIYKQYGHIGLVFNGGNTNQFLILEQNYDGNANTPAKLRWDNYYGCTHFIRPKYKSEGLMNKITNKVKPPAQKAVGKSASKITVGSKAPYNLKWSKGAYFNAKIDGLGATSATRYGDNRTNYRFDVGQAVYAPGTLIYVFEIIDGWCRIYWNNHNEWIWHERLIVKEVFLEHHHHHH; not soluble

Okay, now this sequence:
For the sequence HMAEIYLAGGCFWGLEEYFSRISGVLETSVGYANGQVETTNYQLLKETDHAETVQVIYDEKEVSLREILLYYFRVIDPLSINQQGNDRGRQYRTGIYYQDEADLPAIYTVVQEQERMLGRKIAVEVEQLRHYILAEDYHQDYLRKNPSGYCHIDVTDADKPLIDAANYEKPSQEVLKASLSEESYRVTQEAATEAPFTNAYDQTFEEGIYVDITTGEPLFFAKDKFASGCGWPSFSRPLSKELIHYYKDLSHGMERIEVRSRSGSAHLGHVFTDGPRELGGLRYCINSASLRFVAKDEMEKAGYGYLLPYLNK , give its measured soluble on expression in E. coli value.
soluble
